Collected from the literature: Ki of various compounds toward Matrix metalloproteinase-14 (Homo sapiens, UniProt P50281).

Field: example entries. Status: answers known.
INSERT INTO assay_data (item_smiles, value_type, observed_measurement) VALUES
  ('COc1ccc(C(=O)NCCCOc2ccc(S(=O)(=O)C3(C(=O)NO)CCOCC3)cc2)cc1', 'Ki', '> 10 µM'),
  ('CSc1nc2ccccc2n1Cc1ccc(C(=O)N[C@@H]2CN(C(=O)OC(C)(C)C)C[C@@H]2C(=O)NO)cc1', 'Ki', '> 5.29 µM');

Here's the next entry for you.
Using known records, supply Ki for `C[C@@H](NC(=O)[C@H](O)[C@@H](O)C(=O)N1CCC[C@@H]1c1csc(NC2CC2)n1)c1ccc(-n2cccn2)cc1` > 40 µM

* * *

pKi: −log10 of the molar value.
From various publications: pKi for Matrix metalloproteinase-14 (Homo sapiens, UniProt P50281).

// solved cases for pKi follow
INSERT INTO assay_data (molecule, observed_measurement) VALUES
  ('O=C(N[C@H]1CCC[C@@H]1S)c1ccc(Oc2ccccc2)cc1 (racemic)', '< 4.60'),
  ('O=C(NO)C1(S(=O)(=O)c2ccc(OCCCn3cncc3-c3ccc(OC(F)(F)F)cc3)cc2)CCOCC1', '< 5.00'),
  ('Cc1nc2ccccc2n1Cc1ccc(C(=O)N[C@@H]2CN(C(=O)OC(C)(C)C)C[C@@H]2C(=O)NO)cc1', '< 5.28');

Turning now to a further record.
Tell me its pKi given `O=C(NO)C1(S(=O)(=O)c2ccc(OCCCc3nnnn3-c3ccc(OC(F)(F)F)cc3)cc2)CCOCC1` as the entry. < 5.00
